Every entry's value here was drawn from patent US20210382058A1.

- System: NCI-60 cancer cell lines
- PROCEDURE_SUMMARY: NCI-60 cancer cell line drug screen (GI50, MGM)
- Type: cell-based, human
- CONDITION: Homo sapiens, NCI-H322M, Non-Small Cell Lung Cancer, NCI-H322M; read-out: Antiproliferative Activities [GI50 (μM)]
- Experimental: Cancer cells were incubated with the test compounds at five concentrations ranging from 100 μM to 10 nM for 48 h. […] The approximate average of GI50 values across the entire panel of NCI-60 cancer cell lines for each compound was recorded as the MGM value.
Below, each entry is listed with its recorded GI50.
MEASUREMENT_NAME: GI50 (µM)

INSERT INTO results (smiles_notation, unit_tag, reading) VALUES
  ('CN(C)CCCn1c2c(c3ccc(-c4ccn[nH]4)cc3c1=O)C(=O)c1ccccc1-2', 'µM', 7.05),
  ('O=C1c2ccccc2-c2c1c1ccccc1c(=O)n2CCCNCCO', 'µM', 0.34),
  ('COc1cc2c3c(n(CCCNC4=NCCS4)c(=O)c2cc1OC)-c1cc2c(cc1C3=O)OCO2', 'µM', 3.18),
  ('COc1cc2c(=O)n(CCCN3CCOCC3)c3c(c2cc1OCCCN1CCCC1)C(=O)c1cc2c(cc1-3)OCO2', 'µM', 1),
  ('CN(C)CCCn1c2c(c3ccc(N4CCNCC4)cc3c1=O)C(=O)c1ccccc1-2', 'µM', 0.45),
  ('COc1cnc2c(c1)C(=O)c1c-2n(CCCN2CCCC2)c(=O)c2cc([N+](=O)[O-])ccc12', 'µM', 0.05);

* * *

Below, each entry is listed with its recorded GI50.
- Test system: NCI-60 cancer cell lines
- PROCEDURE_SUMMARY: NCI-60 cancer cell line drug screen (GI50, MGM)
- Type: cell-based, human
- CONDITION: Homo sapiens, NCI-H460, Non-Small Cell Lung Cancer, NCI-H460; read-out: Antiproliferative Activities [GI50 (μM)]
- Description: Cancer cells were incubated with the test compounds at five concentrations ranging from 100 μM to 10 nM for 48 h. […] The approximate average of GI50 values across the entire panel of NCI-60 cancer cell lines for each compound was recorded as the MGM value.
MEASUREMENT_NAME: GI50 (µM)

INSERT INTO assay_data (smiles_notation, measurement_name, readout_relation, reading) VALUES
  ('CN(C)CCCn1c2c(c3cccnc3c1=O)C(=O)c1ccccc1-2', 'GI50', '=', 0.41),
  ('O=C1c2ccccc2-c2c1c1ccccc1c(=O)n2CCCNCCO', 'GI50', '<', 0.01),
  ('CN(C)CCCn1c2c(c3ccc(-c4ccn[nH]4)cc3c1=O)C(=O)c1ccccc1-2', 'GI50', '=', 0.04),
  ('CNCCCn1c2c(c3ccc(F)cc3c1=O)C(=O)c1cc(OC)cnc1-2', 'GI50', '=', 0.05),
  ('COc1cc2c(=O)n(CCCN3CCOCC3)c3c(c2cc1OCCCN1CCCC1)C(=O)c1cc2c(cc1-3)OCO2', 'GI50', '=', 0.03),
  ('COc1cc2c3c(n(CCCN4CCN(C)CC4)c(=O)c2cc1OC)-c1cc2c(cc1C3=O)OCO2', 'GI50', '=', 5.81),
  ('COc1cc2c3c(n(CCCn4ccnc4)c(=O)c2cc1OC)-c1cc2c(cc1C3=O)OCO2', 'GI50', '<', 0.01),
  ('COc1cc2c3c(n(CCCN(C)C)c(=O)c2cc1OC)-c1cc2c(cc1C3=O)OCO2', 'GI50', '=', 0.28),
  ('COc1cc2c3c(n(CCCNCCN)c(=O)c2cc1OC)-c1cc2c(cc1C3=O)OCO2', 'GI50', '=', 0.43),
  ('CN(C)CCCn1c2c(c3ccc(N4CCNCC4)cc3c1=O)C(=O)c1ccccc1-2', 'GI50', '=', 0.31),
  ('COc1cnc2c(c1)C(=O)c1c-2n(CCCNC(C)C)c(=O)c2cc(F)ccc12', 'GI50', '=', 0.04),
  ('COc1cc2c(cc1O)-c1c(c3ccc([N+](=O)[O-])cc3c(=O)n1CCCN1CCOCC1)C2=O', 'GI50', '=', 0.03),
  ('COc1cc2c3c(n(CCCN4CCC(N)CC4)c(=O)c2cc1OC)-c1cc2c(cc1C3=O)OCO2', 'GI50', '=', 0.24),
  ('COc1cc2c(cc1O)-c1c(c3ccc([N+](=O)[O-])cc3c(=O)n1CCCn1ccnc1)C2=O', 'GI50', '=', 0.24),
  ('COc1cc2c3c(n(CCCNC4=NCCS4)c(=O)c2cc1OC)-c1cc2c(cc1C3=O)OCO2', 'GI50', '<', 0.01),
  ('COc1cnc2c(c1)C(=O)c1c-2n(CCCNCCN2CCOCC2)c(=O)c2cc([N+](=O)[O-])ccc12', 'GI50', '=', 0.04);

* * *

- System: NCI-60 cancer cell lines
- PROCEDURE_SUMMARY: NCI-60 cancer cell line drug screen (GI50, MGM)
- Assay type: cell-based, human
- CONDITION: Homo sapiens, SF-539, CNS Cancer, SF-539; read-out: Antiproliferative Activities [GI50 (μM)]
Mark each entry YES if its GI50 sits below 0.2 µM, and NO for all others.

INSERT INTO measurements (smiles_notation, class_name) VALUES
  ('COc1cnc2c(c1)C(=O)c1c-2n(CCCNC2=NCCS2)c(=O)c2cc([N+](=O)[O-])ccc12', 'YES'),
  ('CNCCCn1c2c(c3ccc([N+](=O)[O-])cc3c1=O)C(=O)c1cc(OC)cnc1-2', 'YES'),
  ('O=C1c2ccccc2-c2c1c1ccccc1c(=O)n2CCCNCCO', 'YES'),
  ('COc1cnc2c(c1)C(=O)c1c-2n(CCCNC(C)C)c(=O)c2cc(F)ccc12', 'NO'),
  ('COc1cnc2c(c1)C(=O)c1c-2n(CCCNCCN2CCOCC2)c(=O)c2cc([N+](=O)[O-])ccc12', 'NO'),
  ('COc1cc2c3c(n(CCCn4ccnc4)c(=O)c2cc1OC)-c1cc2c(cc1C3=O)OCO2', 'YES'),
  ('COc1cc2c(cc1O)-c1c(c3ccc([N+](=O)[O-])cc3c(=O)n1CCCN1CCOCC1)C2=O', 'NO'),
  ('COc1ccc2c(c1)C(=O)c1c-2n(CCCN2CCOCC2)c(=O)c2ccccc12', 'NO'),
  ('CNCCCn1c2c(c3ccc(Cl)cc3c1=O)C(=O)c1cc(OC)cnc1-2', 'NO'),
  ('COc1cnc2c(c1)C(=O)c1c-2n(CCCN2CCCC2)c(=O)c2cc([N+](=O)[O-])ccc12', 'YES'),
  ('COc1cc2c(cc1O)-c1c(c3ccc([N+](=O)[O-])cc3c(=O)n1CCCN)C2=O', 'NO'),
  ('CN(C)CCCn1c2c(c3ccc(-c4ccn[nH]4)cc3c1=O)C(=O)c1ccccc1-2', 'NO'),
  ('COc1cc2c(cc1O)-c1c(c3ccc([N+](=O)[O-])cc3c(=O)n1CCCn1ccnc1)C2=O', 'NO'),
  ('CNCCCn1c2c(c3ccc(F)cc3c1=O)C(=O)c1cc(OC)cnc1-2', 'NO'),
  ('CN(C)CCCn1c2c(c3cccnc3c1=O)C(=O)c1ccccc1-2', 'NO'),
  ('CN(C)CCCn1c2c(c3ccc(N4CCNCC4)cc3c1=O)C(=O)c1ccccc1-2', 'NO');

* * *

- Test system: NCI-60 cancer cell lines
- PROCEDURE_SUMMARY: NCI-60 cancer cell line drug screen (GI50, MGM)
- Type: cell-based, human
- CONDITION: Homo sapiens, MDA-MB-435, Melanoma, MDA-MB-435; read-out: Antiproliferative Activities [GI50 (μM)]
Below, each entry is listed with its recorded log10 GI50.
MEASUREMENT_NAME: log10 GI50 (log10 of the value in µM)

INSERT INTO measurements (compound, measurement_name, reading) VALUES
  ('CN(C)CCCn1c2c(c3cccnc3c1=O)C(=O)c1ccccc1-2 [Compound 20]', 'log10 GI50', 0.29),
  ('CNCCCn1c2c(c3ccc(Cl)cc3c1=O)C(=O)c1cc(OC)cnc1-2 [Compound 3]', 'log10 GI50', 0.03),
  ('O=C1c2ccccc2-c2c1c1ccccc1c(=O)n2CCCNCCO [Compound 13]', 'log10 GI50', -0.41),
  ('CN(C)CCCn1c2c(c3ccc(N4CCNCC4)cc3c1=O)C(=O)c1ccccc1-2 [Compound 25]', 'log10 GI50', 0.08),
  ('COc1cnc2c(c1)C(=O)c1c-2n(CCCNCCN2CCOCC2)c(=O)c2cc([N+](=O)[O-])ccc12 [Compound 11]', 'log10 GI50', -0.38),
  ('CNCCCn1c2c(c3ccc(F)cc3c1=O)C(=O)c1cc(OC)cnc1-2 [Compound 6]', 'log10 GI50', -0.33),
  ('CN(C)CCCn1c2c(c3ccc(-c4ccn[nH]4)cc3c1=O)C(=O)c1ccccc1-2 [Compound 30]', 'log10 GI50', 1.01),
  ('COc1cc2c(cc1O)-c1c(c3ccc([N+](=O)[O-])cc3c(=O)n1CCCN)C2=O [Compound 38]', 'log10 GI50', 0.11),
  ('COc1cc2c(cc1O)-c1c(c3ccc([N+](=O)[O-])cc3c(=O)n1CCCn1ccnc1)C2=O [Compound 37]', 'log10 GI50', 0.45),
  ('COc1cnc2c(c1)C(=O)c1c-2n(CCCNC2=NCCS2)c(=O)c2cc([N+](=O)[O-])ccc12 [Compound 12]', 'log10 GI50', -0.32),
  ('COc1cnc2c(c1)C(=O)c1c-2n(CCCNC(C)C)c(=O)c2cc(F)ccc12 [Compound 5]', 'log10 GI50', -0.51),
  ('COc1ccc2c(c1)C(=O)c1c-2n(CCCN2CCOCC2)c(=O)c2ccccc12 [Compound 19]', 'log10 GI50', 0.67),
  ('CNCCCn1c2c(c3ccc([N+](=O)[O-])cc3c1=O)C(=O)c1cc(OC)cnc1-2 [Compound 10]', 'log10 GI50', -0.82),
  ('COc1cc2c(cc1O)-c1c(c3ccc([N+](=O)[O-])cc3c(=O)n1CCCN1CCOCC1)C2=O [Compound 36]', 'log10 GI50', -0.05),
  ('COc1cnc2c(c1)C(=O)c1c-2n(CCCN2CCCC2)c(=O)c2cc([N+](=O)[O-])ccc12 [Compound 9]', 'log10 GI50', -1.22);
